Species: Rattus norvegicus
Experiment: In vitro inhibitory activity of glycine (0.3 uM) responses in isolated cultured cortical neurons
Type: functional
Quick reference for Ki among some compounds
Entry rule: numbers only, all in µM.

[[record]]
compound = "O=C1C2CC(CCN2)N1O (centres undefined)"
measured_metric = "Ki"
value_measured = 3.5

[[record]]
compound = "N[C@@H]1CCN(O)C1=O (stereo in doubt; 1)"
measured_metric = "Ki"
value_measured = 6.3

[[record]]
compound = "C[C@H]1C2NCCC1N(O)C2=O (some centres undefined)"
measured_metric = "Ki"
value_measured = 8.2

[[record]]
compound = "O=C1C2CC(CN2)N1O (centres undefined)"
measured_metric = "Ki"
value_measured = 5

[[record]]
compound = "N[C@H]1C(=O)N(O)C[C@H]1O"
measured_metric = "Ki"
value_measured = 0.75


q: Which measured Ki value corresponds to C[C@@H]1CN(O)C(=O)[C@@H]1N (stereo in doubt; 2) ?
a: 1.3

q: Which measured Ki value corresponds to N[C@@H]1CCN(O)C1=O (stereo in doubt; (+)-1) ?
a: 2.5

q: Which measured Ki value corresponds to `CC[C@@H]1CN(O)C(=O)[C@@H]1N` ?
a: 15.4

* * *

Test: Compound was evaluated for the pKa value in experiment 1
Format: physicochemical
Measured metric: pKa
Please give the numeric answer without any surrounding text.

q: Which measured pKa value corresponds to NC1CCN(OCc2ccccc2)C1=O (stereo unspecified) ?
a: 6.2

* * *

Quick reference for logD among some compounds
Experiment: Compound was evaluated for the octanol-water partition coefficient […] at pH 7.4
Type: physicochemical
Please give the numeric answer without any surrounding text.

q: Which measured logD value corresponds to C[C@@H]1CN(O)C(=O)[C@@H]1N (stereo in doubt; 2) ?
a: 3.42

q: Which measured logD value corresponds to N[C@@H]1CCN(O)C1=O (stereo in doubt; 1) ?
a: 3.52

* * *

Target: UniProt:P35439
Assay: Inhibition of [3H]glycine binding to rat cortical membranes
Just a reminder that ties go to NOT MET: only IC50 strictly below 20 µM counts as MET.

[[record]]
molecule = "CC[C@@H]1CN(O)C(=O)[C@@H]1N"
cat = "MET"

[[record]]
molecule = "C[C@@H]1CN(O)C(=O)[C@@H]1N (stereo in doubt; 2)"
cat = "MET"

[[record]]
molecule = "O=C1C2CC(CCN2)CN1O (centres undefined)"
cat = "NOT MET"

[[record]]
molecule = "N[C@H]1C(=O)N(O)C[C@H]1CCO"
cat = "NOT MET"

[[record]]
molecule = "N[C@H]1C(=O)N(O)C[C@H]1CO"
cat = "NOT MET"

[[record]]
molecule = "N[C@@H]1CCN(O)C1=O (stereo in doubt; 1)"
cat = "NOT MET"

[[record]]
molecule = "CCC[C@@H]1CNC(=O)[C@@H]1N"
cat = "NOT MET"

[[record]]
molecule = "N[C@H]1C(=O)N(O)C[C@H]1O"
cat = "MET"


q: Lab note: confirm whether the reported IC50 for this molecule is below 20 µM, equality not counting. molecule: O=C1C2CC(CCN2)N1O (centres undefined)
a: MET

q: Lab note: confirm whether the reported IC50 for this molecule is below 20 µM, equality not counting. molecule: O=C1C2CC(CN2)CN1O (centres undefined)
a: NOT MET

q: Lab note: confirm whether the reported IC50 for this molecule is below 20 µM, equality not counting. molecule: `N[C@H]1C(=O)N(O)C[C@H]1c1ccccc1`
a: NOT MET

q: Lab note: confirm whether the reported IC50 for this molecule is below 20 µM, equality not counting. molecule: `N[C@H]1C(=O)N(O)C[C@@H]1O`
a: NOT MET

q: Lab note: confirm whether the reported IC50 for this molecule is below 20 µM, equality not counting. molecule: C[C@@H]1C2NCCC1N(O)C2=O (some centres undefined)
a: NOT MET

q: Lab note: confirm whether the reported IC50 for this molecule is below 20 µM, equality not counting. molecule: N[C@@H]1CCN(O)C1=O (stereo in doubt; (+)-1)
a: MET

* * *

Target: Glutamate receptor ionotropic, NMDA 1 (Rattus norvegicus)
Assay: Inhibition of [3H]glycine binding to rat cortical membranes
Measured metric: IC50 (µM)
Entry rule: numbers only, all in µM.

Sample answers from the record:
[[record]]
molecule = "C[C@H]1C2NCCC1N(O)C2=O (stereo partly specified)"
value_measured = 48

[[record]]
molecule = "NC1CCN(O)C1=O (single isomer, unassigned; (-))"
value_measured = 339

[[record]]
molecule = "C[C@H]1CN(O)C(=O)[C@H]1N"
value_measured = 86


q: Which measured IC50 value corresponds to C[C@@H]1CN(O)C(=O)[C@@H]1N (stereo in doubt; (+)-2) ?
a: 1.4

* * *

Test: Compound was evaluated for the pKa value
Format: physicochemical
Quick reference for pKa among some compounds
Please give the numeric answer without any surrounding text.

Sample answers from the record:
[[record]]
compound = "C[C@@H]1CN(OCc2ccccc2)C(=O)[C@@H]1N"
measured_metric = "pKa"
value_measured = 6.1

[[record]]
compound = "C[C@@H]1CN(O)C(=O)[C@@H]1N (stereo in doubt; 2)"
measured_metric = "pKa"
value_measured = 8


Moving on to another compound below.
q: Which measured pKa value corresponds to N[C@@H]1CCN(O)C1=O (stereo in doubt; 1) ?
a: 8.1
